Items are presented alongside their recorded inhibition at 10 µg/mL.
- Target entity: HIV-1 reverse transcriptase (Human immunodeficiency virus type 1 group M subtype B)
- Construct: Reverse transcriptase enzyme from the LAV strain of Human Immunodeficiency Virus (HIV-1); made in house; host or cells: E. coli JM109, clone pBRTprt1+ in vector pIBI21 (lac promoter, IPTG induction)
- Test name: Reverse Transcriptase (RT) Assay
- Type: biochemical
- Conditions: RNA-dependent DNA polymerase activity

# Smiles notation, inhibition at 10 µg/mL
rows = [
    ("CCN1c2ccc(C)cc2C(=O)N(C)c2cccnc21", "91%"),
    ("C=CCN1C(=O)c2ccccc2N(CC)c2ncccc21", "70%"),
    ("O=C1Nc2cccnc2Nc2ccccc21", "55%"),
    ("CCN1C(=O)c2ccccc2N(C)c2ncccc21", "24%"),
    ("CCN1c2ccccc2C(=O)N(C)c2cccnc21", "94%"),
]

###

- Target entity: HIV-1 reverse transcriptase (Human immunodeficiency virus type 1 group M subtype B)
- Construct: Reverse transcriptase enzyme from the LAV strain of Human Immunodeficiency Virus (HIV-1); made in house; host or cells: E. coli JM109, clone pBRTprt1+ in vector pIBI21 (lac promoter, IPTG induction)
- Test name: Reverse Transcriptase (RT) Assay
- Type: biochemical
- Conditions: RNA-dependent DNA polymerase activity
Decision: inhibition at 10 µg/mL compared against 80%; not below it gives Fulfilled, below it gives Not fulfilled.

# Compound, Category label
rows = [
    ("CC(C)(C)OC(=O)CN1c2ccccc2C(=O)Nc2cccnc21 [Example 6]", "Fulfilled"),
    ("CCN1C(=O)c2ccccc2N(C)c2nc(Cl)ccc21 [Example 7]", "Not fulfilled"),
    ("CCN1C(=O)c2ccccc2N(CC)c2ncccc21 [Example 9g]", "Fulfilled"),
    ("CCN1C(=O)c2cccc(C)c2N(CC)c2ncccc21 [Example 3]", "Fulfilled"),
    ("CCCN1C(=O)c2ccccc2N(C)c2ncccc21 [Example 9e]", "Not fulfilled"),
]

###

- Target entity: HIV-1 reverse transcriptase (Human immunodeficiency virus type 1 group M subtype B)
- Construct: Reverse transcriptase enzyme from the LAV strain of Human Immunodeficiency Virus (HIV-1); made in house; host or cells: E. coli JM109, clone pBRTprt1+ in vector pIBI21 (lac promoter, IPTG induction)
- Test name: Reverse Transcriptase (RT) Assay
- Format: biochemical
- Conditions: RNA-dependent DNA polymerase activity
Decision: inhibition at 10 µg/mL compared against 50%; not below it gives 1.0, below it gives 0.0.

# Molecule, Category label
measured = [
    ("Cc1ccc2c(n1)N(C)c1c(C)cccc1C(=O)N2C [Example 5]", 1.0),
    ("CN1c2ccccc2C(=O)Nc2cccnc21 [Example 9a]", 0.0),
    ("Cc1ccc2c(c1)C(=O)N(C)c1cccnc1N2C [Example 8]", 0.0),
    ("C=C(Cl)CN1C(=O)c2ccccc2N(CC)c2ncccc21 [Example 1]", 0.0),
]
